Values from PubChem BioAssay AID1508600

A collection of sequences and their measured z-score
Measurement Notes: Components of the Cytosolic LPS Sensing Pathway: Gene Identification via Genome-wide siRNA Screen;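 also: robust z of the log signal after scaling to non-targeting control siRNA wells of the plate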
Experimental Context: RAW264.7 macrophages, IL-1a HTRF, actives lie on both sides, screened at 100 nM (by protocol), cells primed 5 h with Pam3CSK4 first
Among all 53,000 sequences or so, about 3,700 (7%) were called active. The entries come from a sample that favours actives as a whole.
Metric: z-score

| Sequence String | Metric | Result |
| --- | --- | --- |
| CCUCGUUAUCCUCAUGGGATT against Alppl2 | z-score | 0.649 (inactive) |
| GGGCGAAGAUACAAGUGACTT against Tnp2 | z-score | -1.76 (inactive) |
| GCUUUUUGUGAAACUGGCCTT against Pstpip2 | z-score | 0.191 (inactive) |
| GGGUUGAAGUUUGUCGAAATT against Nlgn1 | z-score | 0.496 (inactive) |
| GGAAAACAAGGAACAUGCGTT against Scgb1b2 | z-score | 0.138 (inactive) |
| GCGUGUUAGGAAAAACUCUTT against Pars2 | z-score | 1.36 (inactive) |
| CCAUCUACCAUAAACUGUATT against Spata6 | z-score | 0.175 (inactive) |
| GUGUUUCCUUGUUAAGAUUTT against Bloc1s4 | z-score | -0.841 (inactive) |
| GGGUUCACGAAAGAGUAAATT against Clcn5 | z-score | -1.21 (inactive) |
| GGGAAGAGCAUGUUUGCUGTT against Surf4 | z-score | 0.982 (inactive) |
| GCCCAGAAUAGACAAACCGTT against Wfdc15b | z-score | -1.95 (inactive) |
| GCUAGAGCUCACCAAAUAATT against Fam83a | z-score | 0.759 (inactive) |
| CCUGGUUUACAUGUACGGGTT against Tap2 | z-score | 0.494 (inactive) |
| GCUUGUGUUUUAGAGCCGCTT against Mat1a | z-score | 0.653 (inactive) |
| GGUGAAGACUUCCAGAAGGTT against Reg3a | z-score | -0.186 (inactive) |
| GGCUAUGGGAAUCAUGAAUTT against H2bc18 | z-score | -2.84 (active) |
| GGCUAAAGUGAGCUCUUCATT against Nob1 | z-score | -0.947 (inactive) |
| GGGAAGUUGUCUGACUAUUTT against Cyc1 | z-score | 0.225 (inactive) |
| GCCGCUGCACUACAAUUUGTT against Trhde | z-score | 0.717 (inactive) |
| CCAAGGCCAUCUCAUUUUCTT against Olfr749 | z-score | 0.511 (inactive) |
| GGAUCUCAAUGUUCACUUGTT against Bpifb2 | z-score | -0.817 (inactive) |
| GGACAUUGACGCAUAGGGATT against Arsa | z-score | -0.232 (inactive) |
| CCCAAUUAGGCUAUGCUAATT against Amfr | z-score | 2.27 (active) |
| CCUCCACUUCGUGAGCGAATT against Xxylt1 | z-score | -1.25 (inactive) |
| GGCUGCUGAAGCAAAUAAGTT against Ankrd17 | z-score | 3.38 (active) |

* * *

Measurement Notes: Components of the Cytosolic LPS Sensing Pathway: Gene Identification via Genome-wide siRNA Screen;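 also: robust z of the log signal after scaling to non-targeting control siRNA wells of the plate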
Experimental Context: RAW264.7 macrophages, IL-1a HTRF, actives lie on both sides, screened at 100 nM (by protocol), cells primed 5 h with Pam3CSK4 first
The whole screen tested about 53,000 sequences, of which about 3,700 (7%) were called active.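 Rule for the calls: active = gene knockdowns whose robust z-score for IL-1 alpha signal is at least 2 or at most -2, so actives lie on both sides; inactive = the rest.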 The entries come from a sample that favours actives as a whole.
Outcome codes: active, inactive

| Sequence String | Qualitative Label |
| --- | --- |
| CCUUGGAGAGAGAAGACAUTT against Rpp38 | inactive |
| GGACAAAAGACAAUCGAGATT against Parp2 | inactive |
| GGGCUUCAUCAACUAUCUUTT against Spint1 | inactive |
| GUACACUCAAUCACUCUUGTT against Rexo5 | inactive |
| GGGCUACAAGAAAAAGUAUTT against Krt85 | active |
| CGAUGACGGGAAAUAAUUUTT against Snx4 | inactive |
| CCACUCUAAUGAUGUUUUUTT against Slc46a3 | inactive |
| GGAAUUAAAAGAGCUGGGCTT against Selenon | inactive |
| GGAGUUAGAAUUGAACCUUTT against Mr1 | inactive |
| GGCCAACCUACUUUUCUGGTT against Mgll | inactive |
| CCGCAAAGUGAGCAAGGUGTT against Id1 | inactive |
| GGUUCCUUAAUCACUUUGCTT against Ndufa9 | inactive |
| GGCUCUAAAACUGUCAGACTT against Scp2d1 | active |
| CCUUGUGUAUGAAAUACUUTT against Taf1b | inactive |
| GGAUCAAGAAAAGAUGAAATT against Galnt1 | inactive |
| UUGUUCAAGAGCUAGAGAUTT against Atg2a | inactive |
| GCUGUGCAGCCACAAGUGATT against Gpr142 | active |
| GGGAUAGUUACCUAAGACATT against Adarb2 | inactive |
| CGACUAUCAGCAGCUGAAGTT against Igf1r | active |
| GGUAAAAGACUAAAGAAGATT against Coch | inactive |
| GGUUUGUAAAGGUUAUGACTT against Nell2 | inactive |
| GGCCAUCGCACUUAAACUUTT against 1700123K08Rik | inactive |
| GCCGGAGUGCACAAUCAAATT against Rarres2 | inactive |
| GGAAGAAUGUGAUGACUCATT against Zfp11 | inactive |
| GGCUAACACUUAAAUUAGCTT against Atoh8 | inactive |
